Procedure Details: Inhibition of fungal FcyB expressed in Aspergillus nidulans assessed as reduction in FcyB-mediated [2,8-3H]-adenine accumulation
Parameters: species or system Fungi
Endpoint: Ki (µM)
Respond with the bare value in µM.

Answered examples (5):
>>> print(df.to_string())
                                smiles_data  measure_unit  observed_measurement
0   c1ccc(CNc2nccc3[nH]c(-c4ccncc4)nc23)cc1            µM                    72
1             Oc1nc2c(NCc3ccccc3)nccc2[nH]1            µM                    74
2    Oc1ccccc1-c1nc2c(NCc3ccccc3)nccc2[nH]1            µM                    82
3  COc1ccc(OC)c(-c2nc3c(NCc4ccccc4)nccc3[nH]2)c1            µM                    42
4            CN1CCN(c2nccc3[nH]c(O)nc23)CC1            µM                    19

In: May I ask what Ki has been recorded for `CN1CCN(c2nccc3[nH]c(-c4ccccc4O)nc23)CC1` ?
Out: 49

In: May I ask what Ki has been recorded for `Nc1[nH]cnc2ncnc1-2` ?
Out: 7

In: May I ask what Ki has been recorded for `COc1ccc(OC)c(-c2nc3c(N4CCN(C)CC4)nccc3[nH]2)c1` ?
Out: 100

In: May I ask what Ki has been recorded for `CN1CCN(c2nccc3[nH]c(-c4ccc([N+](=O)[O-])cc4)nc23)CC1` ?
Out: 106

In: May I ask what Ki has been recorded for `CN1CCN(c2nccc3c2ncn3C2CCCC2)CC1` ?
Out: 38

In: May I ask what Ki has been recorded for `O=c1[nH]cnc2nc[nH]c12` ?
Out: 11

In: May I ask what Ki has been recorded for `CC(C)n1cnc2c(NCc3ccccc3)nccc21` ?
Out: 5
